// melting point lookup, one value per entry

Worked set:
{"Molecule": "COC(=O)c1ccc(C#N)cc1OC", "melting point": "101 to 103 °C"}
{"Molecule": "CNS(=O)(=O)c1ccc(-c2cccs2)c(C(=O)O)c1", "melting point": "164 to 166 °C"}
{"Molecule": "CCc1c(C(=O)O)cnn1-c1ccccc1", "melting point": "159 to 161 °C"}

[ask] Provide measured melting point value, entry: Cn1ncc(C(=O)O)c1-c1ccccc1
[reply] 213 to 215 °C

[ask] Provide measured melting point value, entry: O=C(O)c1ccc(-n2ccnn2)cc1
[reply] 279 to 281 °C

[ask] Provide measured melting point value, entry: CCc1ccc(C(C)CC(=O)O)cc1 (stereo not given)
[reply] 65 to 67 °C

[ask] Provide measured melting point value, entry: CCOC(=O)c1cccnc1S(N)(=O)=O
[reply] 92 to 94 °C

[ask] Provide measured melting point value, entry: COc1cccc(Cn2c(N)nc3ccccc32)c1
[reply] 145 to 147 °C

[ask] Provide measured melting point value, entry: CC(=O)Nc1cc(N)c(F)cc1F
[reply] 104 to 106 °C

[ask] Provide measured melting point value, entry: N#Cc1c(C(=O)O)cc(C2CC2)[nH]c1=S
[reply] 258 to 260 °C

[ask] Provide measured melting point value, entry: CCN1CCCC1CN1CC(C(=O)O)CC1=O (stereo not given)
[reply] 166 to 168 °C
